Entries and their binding signal values follow.
Target: AGO2 A367P (Homo sapiens, UniProt Q9UKV8 1-859, A367P;S387D;S824A;S828D;S831D;S834A)
Sequence (Q9UKV8 whole entry A367P/S387D/S824A/S828D/S831D/S834A): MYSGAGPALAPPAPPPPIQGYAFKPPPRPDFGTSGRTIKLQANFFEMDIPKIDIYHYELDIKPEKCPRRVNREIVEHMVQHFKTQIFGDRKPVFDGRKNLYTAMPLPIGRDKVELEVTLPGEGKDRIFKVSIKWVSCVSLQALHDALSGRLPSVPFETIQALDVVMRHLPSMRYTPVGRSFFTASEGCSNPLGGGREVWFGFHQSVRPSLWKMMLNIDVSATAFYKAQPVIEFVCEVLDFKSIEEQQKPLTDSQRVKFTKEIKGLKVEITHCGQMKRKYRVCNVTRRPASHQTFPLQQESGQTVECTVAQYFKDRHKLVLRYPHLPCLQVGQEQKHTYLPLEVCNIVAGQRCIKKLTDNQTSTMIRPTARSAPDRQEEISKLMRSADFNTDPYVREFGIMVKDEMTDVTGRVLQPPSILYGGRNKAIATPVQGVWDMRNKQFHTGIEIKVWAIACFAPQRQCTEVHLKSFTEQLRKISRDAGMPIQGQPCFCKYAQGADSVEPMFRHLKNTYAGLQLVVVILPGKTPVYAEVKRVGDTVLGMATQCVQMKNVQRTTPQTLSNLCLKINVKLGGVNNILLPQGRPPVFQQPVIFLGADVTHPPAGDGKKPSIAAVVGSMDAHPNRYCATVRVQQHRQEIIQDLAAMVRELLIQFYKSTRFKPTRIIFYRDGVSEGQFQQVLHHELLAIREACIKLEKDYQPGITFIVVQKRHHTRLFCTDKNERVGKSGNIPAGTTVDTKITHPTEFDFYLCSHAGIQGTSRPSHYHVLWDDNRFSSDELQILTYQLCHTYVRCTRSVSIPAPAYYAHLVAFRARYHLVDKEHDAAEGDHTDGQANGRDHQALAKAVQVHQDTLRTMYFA
Assay: RNA Bind-n-Seq (nitrocellulose filter binding and sequencing); miR-122 guide loaded in AGO2; 60 min incubation; 30 mM Tris pH 8.0, 100 mM potassium acetate, 2 mM magnesium acetate, 0.5 mM TCEP, 0.005% NP-40, 0.01 mg/ml yeast tRNA; 3 nM AGO2-miR-122, 100 nM RNA library; 60; high values mean tight binding
Conditions: protein: recombinant; tags: His6 (N-terminal, pFastBac HTA)
Endpoint Label: binding signal

INSERT INTO results (binder, measurement) VALUES
  ('GTGCCCCG (ssRNA, constant regions annealed to DNA blockers; guide miR-122 5'' phosphate) RNA 1: GAGUUCUACAGUCCGACGAUCCCAACGUGCCCCGCACCUGGAAUUCUCGGGUGCCAA RNA 2: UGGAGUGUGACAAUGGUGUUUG DNA 1: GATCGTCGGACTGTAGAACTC DNA 2: TTGGCACCCGAGAATTCCA', '0.159 fold enrichment over input'),
  ('ATGTTCTA (ssRNA, constant regions annealed to DNA blockers; guide miR-122 5'' phosphate) RNA 1: GAGUUCUACAGUCCGACGAUCCCAACAUGUUCUACACCUGGAAUUCUCGGGUGCCAA RNA 2: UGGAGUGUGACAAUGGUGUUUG DNA 1: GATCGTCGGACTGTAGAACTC DNA 2: TTGGCACCCGAGAATTCCA', '0.206 fold enrichment over input'),
  ('GTGCCTCG (ssRNA, constant regions annealed to DNA blockers; guide miR-122 5'' phosphate) RNA 1: GAGUUCUACAGUCCGACGAUCCCAACGUGCCUCGCACCUGGAAUUCUCGGGUGCCAA RNA 2: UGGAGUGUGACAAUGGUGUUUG DNA 1: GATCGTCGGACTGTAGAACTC DNA 2: TTGGCACCCGAGAATTCCA', '0.162 fold enrichment over input'),
  ('ACGTCCTG (ssRNA, constant regions annealed to DNA blockers; guide miR-122 5'' phosphate) RNA 1: GAGUUCUACAGUCCGACGAUCCCAACACGUCCUGCACCUGGAAUUCUCGGGUGCCAA RNA 2: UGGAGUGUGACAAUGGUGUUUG DNA 1: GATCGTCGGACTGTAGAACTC DNA 2: TTGGCACCCGAGAATTCCA', '0.143 fold enrichment over input');
